experiment: 14-day daily oral repeated-dose exploratory study in CD-1 mice (mesylate salt); type: in vivo; conditions: female, CD-1, mouse, in vivo, po, 15 mg/kg, F, Day 1
measure_name: AUC(0-t) (ng·h/mL)
Kindly answer with a numeric value in ng·h/mL, unit omitted.

I have this compound here, CC(C)C[C@@H]1NCCN([C@@H](CC(C)C)C(=O)N2CCC3(C[C@@H]2C)OCC(CN2CCCC2)CO3)C1=O (stereo partly shown) , and I need its recorded AUC(0-t).
711

----------
test: 14-day daily oral repeated-dose exploratory study in CD-1 mice (mesylate salt); type: in vivo; details: male, CD-1, mouse, in vivo, po, 5 mg/kg, M, Day 1
measure_name: AUC(0-t) (ng·h/mL)
Kindly answer with a numeric value in ng·h/mL, unit omitted.

I have this compound here, CC(C)C[C@@H]1NCCN([C@@H](CC(C)C)C(=O)N2CCC3(C[C@@H]2C)OCC(CN2CCCC2)CO3)C1=O (stereo partly shown) , and I need its recorded AUC(0-t).
225

This collection of values is drawn from patent US12611406B2.
